Tested on: SK-OV-3 ovarian
Test: NCI-60 one-dose screen, 48 h (100 = growth as untreated, 0 = no growth, -100 = all killed)
Conditions: 10 µM unless noted
The panel holds about 83,000 compounds, 20% with a hit somewhere; the sample as a whole holds those more often. Active and inactive are the calls of the source. Rule for the calls: active = growth percent below 10; inactive = the rest.
Endpoint: growth

# Molecule, Study Target, Endpoint Result
rows = [
    ("O=S(=O)(NCCNc1nccc(-c2c(-c3cccc(F)c3)nc3occn23)n1)c1ccc(Br)cc1", "SK-OV-3 ovarian", "99.8% (inactive)"),
    ("O=C1Nc2ccccc2[C@]12CC(c1ccccc1)=NN2", "SK-OV-3 ovarian", "57.1% (inactive)"),
    ("Fc1cc2c(cc1Cl)N(c1ncnc3ccc(-c4cnc5[nH]ncc5c4)cc13)CC2", "SK-OV-3 ovarian", "50.8% (inactive)"),
    ("COC(=O)c1c2c(c[n+]([O-])c1C)C(=O)C(NCc1ccccc1)=CC2=O", "SK-OV-3 ovarian", "8.1% (active)"),
    ("Cc1nnc(-n2c(O)cc(=O)n(-c3ccccc3)c2=S)nc1/C=C/c1ccc(N(C)C)cc1", "SK-OV-3 ovarian", "45.6% (inactive)"),
    ("CCCCCCC1(C)NCCO1 (stereo unspecified)", "SK-OV-3 ovarian", "100% (inactive)"),
    ("COc1ccc(/C(C)=C(/c2ccc(OCCCN(C)C)cc2)c2ccc(OC(=O)Cc3ccccc3)cc2)cc1", "SK-OV-3 ovarian", "73.4% (inactive)"),
    ("O=S(=O)(NCCCNc1nccc(-c2c(-c3ccc(F)c(O)c3)nc3occn23)n1)c1ccccc1", "SK-OV-3 ovarian", "79.4% (inactive)"),
    ("CCOC(=O)CNP(=O)(OC[C@@H](Cc1ccccc1)NC(=O)c1cc2ccccc2s1)Oc1ccccc1 (stereo partly specified)", "SK-OV-3 ovarian", "91.2% (inactive)"),
    ("CC1(C)CC2=C3C=C[C@@H]4[C@@]5(C)CCC(=O)C(C)(C)[C@@H]5CC[C@@]4(C)[C@]3(C)CC[C@@]2(C(=O)O)CC1=O", "SK-OV-3 ovarian", "84.3% (inactive)"),
    ("C#CCn1cnc2c(Nc3cccc(NC(=O)C=C)c3)ncnc21", "SK-OV-3 ovarian", "73.5% (inactive)"),
]

###

System: OVCAR-5 ovarian
Assay: NCI-60 one-dose screen, 48 h (100 = growth as untreated, 0 = no growth, -100 = all killed)
Conditions: 10 µM unless noted
About 83,000 compounds went through this panel and 20% of them were active in at least one assay; those are over-represented in the sample as a whole.
Let's look at some compounds and their measured growth.

# Compound, Study Target, growth [%]
measured = [
    ("Cn1c(-c2ccc(Br)cc2)c(O)c(=O)c2c(F)cccc21", "OVCAR-5 ovarian", 63.8),
    ("C=C1C(=O)O[C@H]2[C@H]1CC/C(COC(=O)NCc1cc[nH]c1)=C\\CC[C@@]1(C)O[C@@H]21", "OVCAR-5 ovarian", 50.5),
    ("O=C1NC(=O)c2c1c1c3ccccc3ccc1c1[nH]c3ccc(Br)cc3c21", "OVCAR-5 ovarian", 29.7),
    ("O=c1oc2ccc([N+](=O)[O-])cc2cc1Br", "OVCAR-5 ovarian", 109),
    ("O=C1c2cc(Cl)ccc2S(=O)(=O)c2c(NCCCNCCO)nc3ccccc3c21", "OVCAR-5 ovarian", -18),
    ("CC[C@]12C=CCN3CC[C@@]4(c5cc(NC(=O)CCC(=O)OCc6cn(Cc7ccc(F)cc7)nn6)c(OC)cc5N(C)[C@H]4[C@@](O)(C(=O)OC)[C@@H]1OC(C)=O)[C@@H]32", "OVCAR-5 ovarian", 100),
    ("COc1ccc2[nH]cc(-c3nc(-c4c[nH]c5ccncc45)cs3)c2c1", "OVCAR-5 ovarian", 45.3),
    ("CCCCCCCCCCCCCCCCCCOc1ccccc1CC(=O)OCC[N+]1(C)CCCC1", "OVCAR-5 ovarian", 37.3),
    ("N#Cc1c(-c2ccc(Cl)cc2)nc(SCC(=O)NC2=NN=C(c3ccccc3)CS2)[nH]c1=O", "OVCAR-5 ovarian", 112),
    ("Nc1ncnc2c1N=C(c1ccc3c(c1)OCO3)CC(c1ccc([N+](=O)[O-])cc1)N2 (stereo not given)", "OVCAR-5 ovarian", 75.8),
    ("CCN(CC)c1nc(SCc2ccccc2Cl)ncc1C", "OVCAR-5 ovarian", 119),
    ("COc1ccc(-c2nnc3n(C)c(=O)c4ccccc4n23)cc1N", "OVCAR-5 ovarian", 45.2),
    ("Cc1ccc(/C=C2\\CN(C(=O)OC(C)(C)C)C/C(=C\\c3ccc(C)cc3)C2=O)cc1", "OVCAR-5 ovarian", 112),
    ("O=S(=O)(NCCCNc1nccc(-c2c(-c3ccc(F)c(O)c3)nc3occn23)n1)c1ccccc1", "OVCAR-5 ovarian", 121),
    ("C=CC(=O)NCc1ccc(Nc2nccc(-c3ccc(N4CCCC4)c(C#N)c3)n2)cc1", "OVCAR-5 ovarian", 75.3),
    ("CC(C)CCC[C@@H](C)[C@H]1CC[C@H]2[C@@H]3CC=C4C[C@@H](C(C(=O)O)C(=O)O)CC[C@]4(C)[C@H]3CC[C@]12C", "OVCAR-5 ovarian", 45.2),
    ("COC(=O)c1cc(-c2ccccc2)[nH]c1N/N=C/c1c(Cl)cccc1Cl", "OVCAR-5 ovarian", 21.9),
    ("O=C(Cn1c2c(c3ccccc31)CCCC2)Nc1ccc(-c2nc3ccccc3s2)cc1", "OVCAR-5 ovarian", 99.5),
    ("CCOC(=O)c1[nH]c(=O)c2c(C)nc(-c3ccccc3)cc2c1O", "OVCAR-5 ovarian", 106),
    ("O=C(Nc1cccnc1Nc1ccc(F)cc1)c1cn(Cc2cccc(Oc3ccccc3)c2)nn1", "OVCAR-5 ovarian", 115),
    ("CCn1c(=S)[nH]c2c(=O)n(C)c(=O)n(C)c21", "OVCAR-5 ovarian", 104),
    ("Cn1cc(-c2nc(-c3c[nH]c4ccncc34)cs2)c2ccccc21", "OVCAR-5 ovarian", 71.8),
    ("Cc1ccc(-n2c(=S)[nH]c3sc4c(c3c2=O)CCC(=O)C4)cc1", "OVCAR-5 ovarian", 87.4),
    ("N#CC1CCc2c(c(-c3cn[nH]c3C(F)(F)F)nc3c(F)cc4[nH]ncc4c23)C1 (stereo not given)", "OVCAR-5 ovarian", 63.2),
    ("C=CCn1c(SCC(=O)Nc2ccc(C(=O)/C=C/c3cc4cc(OC)ccc4nc3Cl)cc2)nnc1-c1ccc(Br)cc1", "OVCAR-5 ovarian", 99.2),
    ("COc1cc(OC)cc(C2=C3CC[C@@H]4[C@H](CC[C@]5(C)C(=O)CC[C@@H]45)C3=CC3C(O)c4cccnc4N4C(=O)COC234)c1 (stereo not given in full)", "OVCAR-5 ovarian", 95.5),
    ("COCCn1cc(-c2nc(-c3cc4cccnc4n3CCOC)cs2)c2cc(OC)ccc21", "OVCAR-5 ovarian", 23.6),
    ("COc1ccc(-c2nn(-c3ccccc3)cc2/C=C2/SC(=S)N(C)C2=O)cc1", "OVCAR-5 ovarian", 76.3),
    ("Cc1cccc(Cl)c1NC(=O)c1ccc2nc(NC(=O)NCCN(C)C)sc2c1", "OVCAR-5 ovarian", 85.4),
    ("COC1=CC(c2ccc[nH]2)=N/C1=C\\c1[nH]c(C)c(C(=O)OCc2ccccc2)c1C", "OVCAR-5 ovarian", -38.5),
    ("O=S(=O)(Nc1ccccc1)c1ccc(C2CC3(Cl)C(Cl)=C(Cl)C2(Cl)C3(Cl)Cl)cc1 (stereo not given)", "OVCAR-5 ovarian", 60.1),
    ("Cc1ccc(C(C(N)=O)C(C(N)=O)c2ccccc2)cc1 (stereo not given)", "OVCAR-5 ovarian", 114),
    ("O=C(Nc1cccc([N+](=O)[O-])c1)c1cc2ccccc2cc1O", "OVCAR-5 ovarian", 10.8),
    ("COC(=O)c1ccc2c(c1)C(=O)c1c-2n(CCCN)c(=O)c2cc([N+](=O)[O-])ccc12", "OVCAR-5 ovarian", -74.2),
    ("Cc1ccc(CNc2ccc(Cl)cc2NCc2ccc(C)c(O)c2)cc1O", "OVCAR-5 ovarian", 73.6),
]

###

Test system: HS 578T breast
Experiment: NCI-60 one-dose screen, 48 h (100 = growth as untreated, 0 = no growth, -100 = all killed)
Settings: 10 µM unless noted
About 83,000 compounds went through this panel and 20% of them were active in at least one assay; those are over-represented in the sample as a whole.
Quick rule for you: growth at 40% or higher means Fulfilled, lower means Not fulfilled.

# Molecule, Qualitative Label
records = [
    ("O=c1oc2ccc([N+](=O)[O-])cc2cc1Br", "Fulfilled"),
    ("O=c1c2cc(-c3ccccc3)sc2nc2sc(-c3ccccc3)nn12", "Fulfilled"),
    ("O=C1/C(=C/c2ccc(Cl)c(Cl)c2)CN(C(=O)C(Cl)Cl)C/C1=C\\c1ccc(Cl)c(Cl)c1", "Not fulfilled"),
    ("O=C(Nc1ncc(Cc2ccc(Cl)c(C(F)(F)F)c2)s1)c1ccc2nnsc2c1", "Fulfilled"),
    ("O=C(CCCCC1CCSS1)Nc1ncnc2n[nH]c(-c3ccc(Oc4ccccc4)cc3)c12 (stereo unspecified)", "Fulfilled"),
    ("COc1cccc(/C=C/C(=O)c2cc3c(N)c(C(=O)Nc4ccccc4)sc3nc2C)c1", "Not fulfilled"),
    ("CCN(CC)C(=S)SC(SC(=S)N(CC)CC)C(=O)c1nnn(-c2ccc([N+](=O)[O-])cc2)c1C", "Fulfilled"),
    ("Cc1nc(-c2ccccc2)cc2c(O)c(C(=O)NN)[nH]c(=O)c12", "Fulfilled"),
    ("O=C(/C=C/c1cn(-c2ccccc2)nc1-c1ccc([N+](=O)[O-])cc1)c1ccc(Cl)cc1", "Not fulfilled"),
    ("CSc1nnc(-c2cnn3c2NC(c2ccccc2)C3)n1-c1ccc(C(F)(F)F)cc1 (stereo unspecified)", "Fulfilled"),
]
